Examples of molecules with documented Ki follow.
- experimental system: UniProt:P35372
- condition label: CHO cell membranes, cloned human receptor, […] [3H]DAMGO; read-out: Binding affinity μ (Ki, nm)
Structures can show the parent of a compound that is named as a salt.

# molecule, scale unit, Ki
measured = [
    ("CN1CC[C@]23CC(=O)CCC2[C@H]1Cc1ccc(C(=O)NCCc2nc4ccccc4[nH]2)c(O)c13 (stereo partly shown)", "nM", 1.7),
    ("CN1CC[C@]23CC(=O)CC[C@@]2(O)[C@H]1Cc1ccc(C(=O)NCCc2ccc(-c4cc[nH]c(=O)c4)cc2)c(O)c13", "nM", 0.43),
    ("CN1CC[C@]23CC(=O)CC[C@@]2(O)[C@H]1Cc1ccc(C(=O)NCCc2ccc(-c4ccc(=O)[nH]c4)cc2)c(O)c13", "nM", 0.63),
    ("CN1CC[C@]23CC(=O)CC[C@@]2(O)[C@H]1Cc1ccc(C(=O)NCCc2ccc(-c4cnc(=O)[nH]c4)cc2)c(O)c13 [Compound 11, maleate salt]", "nM", 1.6),
    ("CN1CC[C@]23CC(=O)CC[C@@]2(O)[C@H]1Cc1ccc(C(=O)NCCc2ccc(-c4cn[nH]c4)cc2)c(O)c13", "nM", 0.15),
    ("C=C1CC[C@@]2(O)[C@H]3Cc4ccc(C(=O)NCCc5ccc(-c6c[nH]c(=O)[nH]c6=O)cc5)c(O)c4[C@@]2(CCN3C)C1", "nM", 3.5),
    ("CN1CC[C@]23CC(=O)CC[C@@]2(O)[C@H]1Cc1ccc(C(=O)NCCc2ccc(-c4cnc(O)nc4O)cc2)c(O)c13", "nM", 1.3),
]

FYI, the data here is from patent US8962646B2.
